# MEASUREMENT_TARGET: T1, human VEGF (hVEGF) (human, UniProt P15692 181-395)
# T1 construct: also called VEGF-A
# T1 sequence: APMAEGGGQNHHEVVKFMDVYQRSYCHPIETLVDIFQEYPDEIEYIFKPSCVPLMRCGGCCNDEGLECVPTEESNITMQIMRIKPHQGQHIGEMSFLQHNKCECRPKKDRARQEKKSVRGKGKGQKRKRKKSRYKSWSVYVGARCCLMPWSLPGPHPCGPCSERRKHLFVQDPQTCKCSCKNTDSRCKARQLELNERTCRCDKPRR
# TEST: SPR single-cycle;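 note: fab variants injected over hVEGF immobilized on a CM5 chip (Biacore T200), threefold dilution series from 0.02 to 50 nM, kinetics fitted with a 1:1 Langmuir model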
Quick reference for pKd among some binders
# pKd = -log10(concentration in molar units)

Example results:
BINDER	pKd
G6.31 HC-A60E (Fab, name in Kabat numbering, V domains shown, Fab) VH: EVQLVESGGGLVQPGGSLRLSCAASGFTISDYWIHWVRQAPGKGLEWVAGITPAGGYTYYEDSVKGRFTISADTSKNTAYLQMNSLRAEDTAVYYCARFVFFLPYAMDYWGQGTLVTVSS VL: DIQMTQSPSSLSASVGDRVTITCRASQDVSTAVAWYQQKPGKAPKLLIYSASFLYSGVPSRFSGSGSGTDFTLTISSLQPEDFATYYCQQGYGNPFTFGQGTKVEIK	8.97
G6.31 LC-P59E (Fab, V domains shown, Fab) VH: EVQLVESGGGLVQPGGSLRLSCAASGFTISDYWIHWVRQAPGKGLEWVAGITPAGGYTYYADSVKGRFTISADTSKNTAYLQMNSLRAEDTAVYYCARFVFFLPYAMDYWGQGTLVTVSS VL: DIQMTQSPSSLSASVGDRVTITCRASQDVSTAVAWYQQKPGKAPKLLIYSASFLYSGVESRFSGSGSGTDFTLTISSLQPEDFATYYCQQGYGNPFTFGQGTKVEIK	8.81
G6.31 HC-Y58E (Fab, name in Kabat numbering, V domains shown, Fab) VH: EVQLVESGGGLVQPGGSLRLSCAASGFTISDYWIHWVRQAPGKGLEWVAGITPAGGYTEYADSVKGRFTISADTSKNTAYLQMNSLRAEDTAVYYCARFVFFLPYAMDYWGQGTLVTVSS VL: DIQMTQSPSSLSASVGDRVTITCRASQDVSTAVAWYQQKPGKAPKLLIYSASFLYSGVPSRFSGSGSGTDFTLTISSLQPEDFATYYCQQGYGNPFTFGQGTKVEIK	9.21
G6.31 HC-T68E (Fab, name in Kabat numbering, V domains shown, Fab) VH: EVQLVESGGGLVQPGGSLRLSCAASGFTISDYWIHWVRQAPGKGLEWVAGITPAGGYTYYADSVKGRFEISADTSKNTAYLQMNSLRAEDTAVYYCARFVFFLPYAMDYWGQGTLVTVSS VL: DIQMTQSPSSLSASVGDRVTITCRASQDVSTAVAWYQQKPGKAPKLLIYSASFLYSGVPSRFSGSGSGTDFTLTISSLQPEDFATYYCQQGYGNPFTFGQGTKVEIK	8.69

For the next question, use this binder.
Please indicate pKd recorded for G6.31 HC-Y56K (Fab, name in Kabat numbering, V domains shown, Fab) VH: EVQLVESGGGLVQPGGSLRLSCAASGFTISDYWIHWVRQAPGKGLEWVAGITPAGGKTYYADSVKGRFTISADTSKNTAYLQMNSLRAEDTAVYYCARFVFFLPYAMDYWGQGTLVTVSS VL: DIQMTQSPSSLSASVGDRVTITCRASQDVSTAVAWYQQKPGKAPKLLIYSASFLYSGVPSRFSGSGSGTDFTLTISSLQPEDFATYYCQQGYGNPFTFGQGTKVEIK
9.02
